System: 786-0 renal
Test: NCI tumour cell line growth inhibition, 48 h
Assignment: determine reported TGI for the given compounds.

COc1cc2cnc3c4cc(O)ccc4ccc3c2cc1OC ... > 100 µM
CN(C)C1(N(C)C)Oc2c(c(=O)n(C)c(=O)n2C)C(c2ccc(F)cc2)C1(F)F (centres undefined) ... > 100 µM
N#Cc1ccc(C(=O)c2cnn(-c3ccc(F)cc3)c2N)cc1 ... > 25 µM

Note: attention shifts to another entry.
Write down the reported TGI of `Nc1n[nH]c(N)n1` , test system: 786-0 renal.
> 10000 µM

Numbers sourced from PubChem BioAssay (NCI).
